Catalogue of Concentration of FLNA-Binding Compound as Agonist 1 μM + BFNA values
- system-tested: mu opiate receptor (MOR) (Rattus norvegicus, UniProt P33535)
- Construct: from tissue; host or cells: striatum (membrane preparation)
- Sequence (P33535 whole entry): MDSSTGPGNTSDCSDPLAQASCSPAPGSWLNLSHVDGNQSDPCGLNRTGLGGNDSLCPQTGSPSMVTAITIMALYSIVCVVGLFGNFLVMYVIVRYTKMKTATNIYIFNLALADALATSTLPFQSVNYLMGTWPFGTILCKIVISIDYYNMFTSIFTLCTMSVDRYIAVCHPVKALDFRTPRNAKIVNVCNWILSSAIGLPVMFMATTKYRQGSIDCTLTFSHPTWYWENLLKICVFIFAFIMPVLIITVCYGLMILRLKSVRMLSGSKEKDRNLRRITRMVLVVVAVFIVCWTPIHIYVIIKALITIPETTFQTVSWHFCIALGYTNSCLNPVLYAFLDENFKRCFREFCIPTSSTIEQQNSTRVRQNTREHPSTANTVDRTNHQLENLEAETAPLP
- Format: biochemical
- conditions: [35S]GTPγS binding to Gαo in striatal membranes; compound 1 μM plus 1 μM β-funaltrexamine (MOR antagonist)
Give the value in % but do not write % after it.

Consider the worked cases shown below.
compound | observed-result
O=S(=O)(c1ccc(Cl)cc1)N1CCC2(CC1)OCCN2S(=O)(=O)c1ccc(Cl)cc1 [Compound C0067] | 33.5
COc1ccc(S(=O)(=O)N2CCC3(CC2)OCCN3S(=O)(=O)c2ccc(OC)c(OC)c2)cc1OC [Compound C0049] | 81.0
O=S(=O)(c1csc2ccccc12)N1CCC2(CC1)OCCN2S(=O)(=O)c1csc2ccccc12 [Compound C0150M] | 93.4

Record summary for COc1c2c(cc3c1C(CC(=O)Cc1ccc(C#N)cc1)[N+](C)(C)CC3)OCO2 (centres unmarked) [Compound B0012] : reported Concentration of FLNA-Binding Compound as Agonist 1 μM + BFNA = 145.1

Record summary for COc1c2c(cc3c1C(CC(=O)CCc1ccccc1)N(C)CC3)OCO2 (centres unmarked) [Compound B0050] : reported Concentration of FLNA-Binding Compound as Agonist 1 μM + BFNA = 48.8

The recorded Concentration of FLNA-Binding Compound as Agonist 1 μM + BFNA for O=S(=O)(c1cccc2cccnc12)N1CCC2(CC1)OCCN2S(=O)(=O)c1cccc2cccnc12 [Compound C0143M] is 86.5

Noted for O=S(=O)(c1ccc(Br)cc1F)N1CCC2(CC1)OCCN2S(=O)(=O)c1ccc(Br)cc1F [Compound C0078] : its Concentration of FLNA-Binding Compound as Agonist 1 μM + BFNA reads 170.7

CC(=O)c1ccc(C(=O)N2CCC3(CC2)OCCN3C(=O)c2ccc(C(C)=O)cc2)cc1 [Compound C0054] yielded Concentration of FLNA-Binding Compound as Agonist 1 μM + BFNA of 43.5

###

- system-tested: mu opiate receptor (MOR) (Rattus norvegicus, UniProt P33535)
- Construct: from tissue; host or cells: striatum (membrane preparation)
- Assay type: biochemical
experimental-readout: % DAMGO (1 μM) (%)
Please reply with the bare figure in % and do not write the unit itself.

// solved cases for % DAMGO (1 μM) follow
compound | readout-units | % DAMGO (1 μM)
COc1ccccc1CC(O)CC1c2c(cc3c(c2OC)OCO3)CCN1C (centres unmarked) [Compound B0030] | % | 103.4
CC(=O)c1ccc(S(=O)(=O)N2CCC3(CC2)NCC(=O)N3Cc2ccccc2)cc1 [Compound C0082M] | % | 107.8
CC1CCCC(OCC(O)CN2CC(C)OC(C)C2)C1 (centres unmarked) [Compound A0021] | % | 112.4
COc1ccc(S(=O)(=O)N2CCC3(CC2)NCCO3)cc1 [Compound C0026] | % | 105.6

Let us move to another entry and its % DAMGO (1 μM).
For reference, reported % DAMGO (1 μM) for COc1cccc(CCC(=O)CC2c3c(cc4c(c3OC)OCO4)CC[N+]2(C)C)c1 (centres unmarked) [Compound B0034] stands at 88.1

###

Catalogue of [35S]GTPγS binding, FLNA-Binding Compound as Agonist at 0.1 μM readings, one per entry.
- system-tested: mu opiate receptor (MOR) (Rattus norvegicus, UniProt P33535)
- Construct: from tissue; host or cells: striatum (membrane preparation)
- Assay type: biochemical
- conditions: 0.1 μM compound; striatal membranes; Series C-2

# annotated cases, reported [35S]GTPγS binding, FLNA-Binding Compound as Agonist at 0.1 μM shown
compound | observed-result
CC(=O)c1ccc(S(=O)(=O)N2CC(CN(C)C)OC23CCN(CC2CC2)CC3)cc1 (stereo not drawn) [Compound C0128M] | 197.8%
COc1ccc(NC(=O)N2CCC3(CC2)NCCO3)cc1 [Compound C0151M-2] | 346.8%
COc1ccc(S(=O)(=O)N2CCSC23CCNCC3)cc1 | 156.2%
O=C1CN(Cc2ccccc2)C2(CCN(CC3CC3)CC2)N1 [Compound C0125M] | 168.6%
CC(=O)N1CCSC12CCN(S(=O)(=O)c1ccc([N+](=O)[O-])cc1)CC2 | 110.3%

Entry COc1ccc(S(=O)(=O)N2CCOC23CCN(C)CC3)cc1 [Compound C0088M] ; [35S]GTPγS binding, FLNA-Binding Compound as Agonist at 0.1 μM = 276.3%

###

- system-tested: mu opiate receptor (MOR) (Rattus norvegicus, UniProt P33535)
- Construct: from tissue; host or cells: striatum (membrane preparation)
- Type: biochemical
- Description: To assess the mu opiate receptor (MOR) agonist activity of positive compounds from the FLNA screening, compounds were tested in a [^35S]GTPγS binding assay using striatal membranes. […] The immunocomplexes so formed were collected by incubation at 25° C. for 30 minutes with 40 μl of agarose-conjugated protein A/G beads and centrifugation at 5,000×g at 4° C. for 5 minutes. […] The radioactivity in the suspension was determined by liquid scintillation spectrometry.
Tag: label 1 if measured % DAMGO (0.1 μM) is not below 80%, label 0 if it is.

These recorded examples may help you get a feel for the data.
compound | group-label
CCN1CCC2(CC1)OCCN2S(=O)(=O)c1ccc(OC)cc1 [Compound C0089M] | label 1
CC1CN(CC(O)COc2ccccc2)CC(C)O1 (centres unmarked) [Compound A0025] | label 0
CCCCN1CCC2(CC1)OCCN2S(=O)(=O)c1ccc(C(C)=O)cc1 [Compound C0101M] | label 1
COc1c2c(cc3c1C(CC(=O)c1cccc(C(F)(F)F)c1)[N+](C)(C)CC3)OCO2 (centres unmarked) [Compound B0006] | label 0

Query: Textbook exercise: given the entry COc1ccc(S(=O)(=O)N2CCC3(OCCN3S(=O)(=O)c3ccc(OC)cc3)C3CCCCC32)cc1 (centres unmarked) [Compound C0144M] , state whether its % DAMGO (0.1 μM) is greater than or equal to 80%.
Result: label 1

Query: Test whether the compound COc1ccc(OCC(O)CN2CCOc3ccccc32)cc1 (centres unmarked) [Compound A0076] records % DAMGO (0.1 μM) of 80% or higher.
Result: label 0

Query: Determine whether measured % DAMGO (0.1 μM) meets or exceeds 80% for O=S(=O)(c1ccc(Oc2ccccc2)cc1)N1CCC2(CC1)OCCN2S(=O)(=O)c1ccc(Oc2ccccc2)cc1 [Compound C0149M]
Result: label 1

###

- system-tested: mu opiate receptor (MOR) (Rattus norvegicus, UniProt P33535)
- Construct: from tissue; host or cells: striatum (membrane preparation)
- Assay type: biochemical
- conditions: [35S]GTPγS binding to Gαo in striatal membranes; compound 1 μM
# Concentration of FLNA-Binding Compound as Agonist 1 μM listing for each entry below
Supply the numeric figure in %, leaving out any unit text.

molecule | observed-result
CC1CCC(C(C)C)C(OCC(CN2CC(C)OC(C)C2)NCc2ccccc2)C1 (centres unmarked) | 254.6
CCCCc1ccc(S(=O)(=O)N2CCC3(CC2)OCCN3S(=O)(=O)c2ccc(CCCC)cc2)cc1 | 226.8
COc1c2c(cc3c1OCO3)CCN(CC(O)COC1CC(C)CCC1C(C)C)C2 (centres unmarked) | 197.1
CC1CN(CC(O)COc2cccc(N(C)C)c2)CC(C)O1 (centres unmarked) | 233.1
COc1c2c(cc3c1C(CC(O)Cc1ccccc1C)N(C)CC3)OCO2 (centres unmarked) | 186.7

The molecule CC1CCC(C(C)C)C(OCC(O)CN2CCN(CCN3CCCCC3)CC2)C1 (centres unmarked) , tested on mu opiate receptor (MOR) (Rattus norvegicus, UniProt P33535), showed Concentration of FLNA-Binding Compound as Agonist 1 μM of 297.0

Simply: COc1c2c(cc3c1C(CC(O)CCc1ccccc1)N(C)CC3)OCO2 (centres unmarked) , mu opiate receptor (MOR) (Rattus norvegicus, UniProt P33535), Concentration of FLNA-Binding Compound as Agonist 1 μM = 167.9

mu opiate receptor (MOR) (Rattus norvegicus, UniProt P33535) Concentration of FLNA-Binding Compound as Agonist 1 μM of O=S(=O)(c1cccs1)N1CCC2(CC1)OCCN2S(=O)(=O)c1cccs1 [Compound C0141M] is 213.9

###

- system-tested: mu opiate receptor (MOR) (Rattus norvegicus, UniProt P33535)
- Construct: from tissue; host or cells: striatum (membrane preparation)
- Format: biochemical
Assign yes (1) to entries whose % DAMGO + BFNA meets or exceeds 200%; assign no (0) to the rest.

Illustrative cases are given below, each with its answer.
molecule | system-tested | group-label
CC1CN(CC(O)COc2cccc(F)c2)CC(C)O1 (centres unmarked) | mu opiate receptor (MOR) (Rattus norvegicus, UniProt P33535) | no (0)
Cc1ccccc1S(=O)(=O)N1CCC2(CC1)OCCN2S(=O)(=O)c1ccccc1C | mu opiate receptor (MOR) (Rattus norvegicus, UniProt P33535) | no (0)
O=C1CNC2(CCNCC2)N1Cc1ccccc1 [Compound C0114M] | mu opiate receptor (MOR) (Rattus norvegicus, UniProt P33535) | no (0)
O=S(=O)(c1ccc(C(F)(F)F)cc1Br)N1CCC2(CC1)OCCN2S(=O)(=O)c1ccc(C(F)(F)F)cc1Br | mu opiate receptor (MOR) (Rattus norvegicus, UniProt P33535) | yes (1)
O=C(O)c1ccc(C(=O)N2CCC3(CC2)OCCN3S(=O)(=O)c2ccc(C(=O)O)cc2)cc1 | mu opiate receptor (MOR) (Rattus norvegicus, UniProt P33535) | yes (1)

Query: # check: % DAMGO + BFNA of COc1c2c(cc3c1C(CC(O)CCc1ccccc1)N(C)CC3)OCO2 (centres unmarked) is greater than or equal to 200%
Result: yes (1)

Query: Can COc1ccc(C(=O)CC2c3c(cc4c(c3OC)OCO4)CC[N+]2(C)C)cc1 (centres unmarked) be said to have % DAMGO + BFNA at or above 200%?
Result: no (0)
